experiment: growth inhibition of non-replicating M. tuberculosis (AID 488890); conditions: Mycobacterium tuberculosis non-replicating, at 25 µM, stronger effect = higher value;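 note: plate controls were DMSO cells for no effect and high antibiotic wells for full effect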
About 1,300 (0.41%) of roughly 320,000 compounds were called active. Inconclusive results (about 3%) are left out. A selection follows. Potency and affinity values are given separately.
For each of the compounds below, state its inhibition.
Answers are plain numbers, in %.

Solved entries (count: 2):
O=C(NCC(c1cccs1)N1CCOCC1)c1cccc([N+](=O)[O-])c1 (configuration not stated) :: 3.78
O=C(c1nc2ccccn2c1CNCCCn1nnc2ccccc21)N1CCOCC1 :: -59.9

Dear colleague, could you send me inhibition for each of the items below? Thanks.
1. COc1cccc(NC(=O)COC(=O)CCCc2c[nH]c3ccccc23)c1
2. CCC(C)C(NC(=O)C1CCC(C)CC1)C(=O)NCc1ccco1 (configuration not stated)
3. CCOC(=O)c1nn(-c2ccc(F)cc2)c2nc(Nc3ccccc3)cc(=O)n12
4. CN1C(=O)Cn2c1nc1ccccc12

1: 58.5; 2: -7.14; 3: 75.5; 4: -4.7

Dear colleague, could you send me inhibition for each of the items below? Thanks.
1. CC1=Nc2ccccc2/C1=C/c1c(O)[nH]c(=O)[nH]c1=O
2. O=C(NCC(c1cccs1)N1CCOCC1)c1ccc([N+](=O)[O-])cc1 (configuration not stated)
3. CCOc1ccccc1NC(=O)C1CCCCN1S(=O)(=O)c1ccc(F)cc1 (configuration not stated)
4. COc1ccc(NC(=O)CN(C)S(=O)(=O)c2ccc3c(c2)CCCN3C(C)=O)cc1
5. O=c1[nH]c(O)c(C=Nc2ccc(F)c(Cl)c2)c(=O)[nH]1
6. Cc1ccc(NC(=O)COc2ncnc3sccc23)cc1S(=O)(=O)N(C)C

1: 1.63; 2: -4.42; 3: 14.8; 4: -3.38; 5: 4.76; 6: 7.74

Dear colleague, could you send me inhibition for each of the items below? Thanks.
1. COc1ccc(/C=N/NC(=O)c2c(Br)cnn2C)c2ccccc12
2. CC1CCCN(CCC(=O)Nc2ccc(Br)cc2)C1 (configuration not stated)
3. CC1CCCN(CCOc2ccc(Br)cc2)C1 (configuration not stated)
4. CC(=O)Nc1ccc(NC(=O)CSc2nnc(-c3ccc4c(c3)OCO4)o2)cc1
5. CCOC(=O)c1nn(-c2cccc(Cl)c2)c2nc(Nc3ccccc3)cc(=O)n12
6. CCOC(=O)C1CCN(CC(=O)Nc2c(C(=O)OC)[nH]c3cccc(C)c23)CC1
7. NS(=O)(=O)c1cccc(NC(=O)COC(=O)CCCc2c[nH]c3ccccc23)c1
8. CCCCNC(=O)CCn1nc(-c2ccc(C)cc2)c2ccccc2c1=O

[8.73, 10.6, 16.9, 14.8, 63.6, 2.06, 7.86, 1.93]

Dear colleague, could you send me inhibition for each of the items below? Thanks.
1. O=C(COC(=O)c1c[nH]c2ccccc12)Nc1ccc([N+](=O)[O-])cc1
2. NC(=O)c1ccccc1NC(=S)NC(=O)c1ccc(Br)o1

-4.96
13.4
